Numbers sourced from paper PMC7774954.

Each entry below carries its reported BI.
System: 266 human PDZ domains (PDZome)
Experiment: Holdup assay (chromatographic retention, PDZome-binding profile, BI)
Design: key: binding intensity: 0.00 = no binding, 1.00 = maximal binding
Settings: PDZ domain MPDZ-5
*1 amine or outer side, *2 acyl side, *3 side chain or, on linkers, in order; H or OH if unused. Where a SMILES comes first, the peptide text is derived from it. The star is where a group is joined. X1 = O=C(CCCC[C@@H]1SC[C@@H]2NC(=O)N[C@@H]21)NCCCOCCOCCOCCCN*; Suc = O=C(CCC(=O)[*:2])[*:1]
Please give the numeric answer without any surrounding text.

Examples with their reported BI follow.
compound: CC[C@H](C)[C@H](NC(=O)[C@H](CCC(N)=O)NC(=O)[C@@H](NC(=O)[C@H](Cc1c[nH]cn1)NC(=O)[C@H](CCC(N)=O)NC(=O)[C@H](CC(=O)O)NC(=O)[C@H](CCC(=O)O)NC(=O)[C@H](CC(=O)O)NC(=O)CCC(=O)NCCCOCCOCCOCCCNC(=O)CCCC[C@@H]1SC[C@@H]2NC(=O)N[C@@H]21)[C@@H](C)O)C(=O)N[C@H](C(=O)N[C@@H](CCCNC(=N)N)C(=O)N[C@H](C(=O)O)C(C)C)[C@@H](C)O [PTEN_KR] ({X1-Suc}-DEDQHTQITRV-OH)
testedSystem: 266 human PDZ domains (PDZome)
BI: 0.058
//
compound: CC[C@H](C)[C@H](NC(=O)[C@H](CCC(N)=O)NC(=O)[C@@H](NC(=O)[C@H](Cc1c[nH]cn1)NC(=O)[C@H](CCC(N)=O)NC(=O)[C@H](CC(=O)O)NC(=O)[C@H](CCC(=O)O)NC(=O)[C@H](CC(=O)O)NC(=O)CCC(=O)NCCCOCCOCCOCCCNC(=O)CCCC[C@@H]1SC[C@@H]2NC(=O)N[C@@H]21)[C@@H](C)O)C(=O)N[C@H](C(=O)N[C@@H](CCCCN)C(=O)N[C@H](C(=O)O)C(C)C)[C@@H](C)O
testedSystem: 266 human PDZ domains (PDZome)
BI: 0.085

Query compound follows.
Tell me its BI given `CC[C@H](C)[C@H](NC(=O)[C@H](CCC(N)=O)NC(=O)[C@@H](NC(=O)[C@H](Cc1c[nH]cn1)NC(=O)[C@H](CCC(N)=O)NC(=O)[C@H](CC(=O)O)NC(=O)[C@H](CCC(=O)O)NC(=O)[C@H](CC(=O)O)NC(=O)CCC(=O)NCCCOCCOCCOCCCNC(=O)CCCC[C@@H]1SC[C@@H]2NC(=O)N[C@@H]21)[C@@H](C)O)C(=O)N[C@H](C(=O)N[C@@H](CCCCNC(C)=O)C(=O)N[C@H](C(=O)O)C(C)C)[C@@H](C)O` as the entry.
-0.014

###

Target: NHERF2 PDZ 2 (Homo sapiens, UniProt Q15599)
Construct: made in house; host or cells: E. coli
Sequence (Q15599 150-230 limits assumed): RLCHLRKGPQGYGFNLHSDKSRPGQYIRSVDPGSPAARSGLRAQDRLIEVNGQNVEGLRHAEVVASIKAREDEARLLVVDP
Experiment: Holdup assay, NHERF2-2
Assay type: binding
Conditions: PDZ domain NHERF2-2 (gene MPDZ, 9)
Procedure: The holdup assay was performed on a Tecan freedom Evo200 robot with 384-well plates in singlicate for the three 11-mer PTEN variants and the 13-mer PTEN peptide as described in [31, 32]. […] After a sufficient time to reach complex equilibrium (15 min.), a fast and mild filtration step is performed and the tag-PDZ concentrations were measured by capillary electrophoresis instrument (LabChip GXII, PerkinElmer, Massachusets, USA). […]
*1 amine or outer side, *2 acyl side, *3 side chain or, on linkers, in order; H or OH if unused. Where a SMILES comes first, the peptide text is derived from it. The star is where a group is joined. X1 = O=C(CCCC[C@@H]1SC[C@@H]2NC(=O)N[C@@H]21)NCCCOCCOCCOCCCN*; Suc = O=C(CCC(=O)[*:2])[*:1]
A collection of compounds and their measured BI
Field format: numeric only.

Please tell me the measured BI for CC[C@H](C)[C@H](NC(=O)[C@H](CCC(N)=O)NC(=O)[C@@H](NC(=O)[C@H](Cc1c[nH]cn1)NC(=O)[C@H](CCC(N)=O)NC(=O)[C@H](CC(=O)O)NC(=O)[C@H](CCC(=O)O)NC(=O)[C@H](CC(=O)O)NC(=O)CCC(=O)NCCCOCCOCCOCCCNC(=O)CCCC[C@@H]1SC[C@@H]2NC(=O)N[C@@H]21)[C@@H](C)O)C(=O)N[C@H](C(=O)N[C@@H](CCCNC(=N)N)C(=O)N[C@H](C(=O)O)C(C)C)[C@@H](C)O [PTEN_KR] ({X1-Suc}-DEDQHTQITRV-OH) ; system: NHERF2 PDZ 2 (Homo sapiens, UniProt Q15599).
0.523

// fetch BI; item: CC[C@H](C)[C@H](NC(=O)[C@H](CCC(N)=O)NC(=O)[C@@H](NC(=O)[C@H](Cc1c[nH]cn1)NC(=O)[C@H](CCC(N)=O)NC(=O)[C@H](CC(=O)O)NC(=O)[C@H](CCC(=O)O)NC(=O)[C@H](CC(=O)O)NC(=O)[C@H](Cc1ccccc1)NC(=O)[C@@H]1CCCN1C(=O)CCC(=O)NCCCOCCOCCOCCCNC(=O)CCCC[C@@H]1SC[C@@H]2NC(=O)N[C@@H]21)[C@@H](C)O)C(=O)N[C@H](C(=O)N[C@@H](CCCCN)C(=O)N[C@H](C(=O)O)C(C)C)[C@@H](C)O [PTEN_13] ({X1-Suc}-PFDEDQHTQITKV-OH) ; system: NHERF2 PDZ 2 (Homo sapiens, UniProt Q15599)
0.117

Please respond with reported BI (system NHERF2 PDZ 2 (Homo sapiens, UniProt Q15599)) for `CC[C@H](C)[C@H](NC(=O)[C@H](CCC(N)=O)NC(=O)[C@@H](NC(=O)[C@H](Cc1c[nH]cn1)NC(=O)[C@H](CCC(N)=O)NC(=O)[C@H](CC(=O)O)NC(=O)[C@H](CCC(=O)O)NC(=O)[C@H](CC(=O)O)NC(=O)CCC(=O)NCCCOCCOCCOCCCNC(=O)CCCC[C@@H]1SC[C@@H]2NC(=O)N[C@@H]21)[C@@H](C)O)C(=O)N[C@H](C(=O)N[C@@H](CCCCNC(C)=O)C(=O)N[C@H](C(=O)O)C(C)C)[C@@H](C)O` .
0.066
